The entries below come with measured IC50 values attached.
subject-of-test: Thromboxane-A synthase (Homo sapiens)
Sequence (P24557 whole entry): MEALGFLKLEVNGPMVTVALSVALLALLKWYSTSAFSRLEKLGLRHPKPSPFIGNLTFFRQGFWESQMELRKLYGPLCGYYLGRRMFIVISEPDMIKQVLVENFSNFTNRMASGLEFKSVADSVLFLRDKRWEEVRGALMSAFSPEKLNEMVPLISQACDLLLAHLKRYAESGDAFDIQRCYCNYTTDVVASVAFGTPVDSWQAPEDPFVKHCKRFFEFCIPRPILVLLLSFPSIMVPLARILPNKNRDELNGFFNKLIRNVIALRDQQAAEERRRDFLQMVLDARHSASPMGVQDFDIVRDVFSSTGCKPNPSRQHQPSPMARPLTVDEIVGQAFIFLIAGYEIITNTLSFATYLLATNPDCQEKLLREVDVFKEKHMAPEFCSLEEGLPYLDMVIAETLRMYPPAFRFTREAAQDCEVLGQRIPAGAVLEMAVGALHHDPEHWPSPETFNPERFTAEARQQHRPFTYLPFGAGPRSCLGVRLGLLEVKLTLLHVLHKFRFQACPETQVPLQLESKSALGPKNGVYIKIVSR

compound | relation | IC50 / nM
O=C(O)CC/C=C\CC[C@@H]1[C@@H](c2cccnc2)SC[C@H]1OCc1ccc(-c2ccccc2)cc1 (stereo in doubt; (-)) | = | 13
O=C(O)CCCCCc1cccc2cncn12 [PIRMAGREL] | = | 3
O=C(O)CC/C=C\CC[C@H]1[C@@H](OCc2ccc(-c3ccccc3)cc2)CS[C@@H]1c1cccnc1 | = | 11
O=C(O)CCC/C=C\C[C@@H]1[C@@H](c2cccnc2)SC[C@H]1OCc1ccc(-c2ccccc2)cc1 | = | 43
O=C(O)CC/C=C\CC[C@@H]1[C@@H](c2cccnc2)SC[C@H]1OCc1ccc(-c2ccccc2)cc1 (stereo in doubt; 1) | = | 10
O=C(O)CC/C=C\CC[C@@H]1[C@@H](c2cccnc2)[S@+]([O-])C[C@H]1OCc1ccc(-c2ccccc2)cc1 | > | 200
O=C(O)CC/C=C\CC[C@H]1[C@@H](OCc2ccc(-c3ccccc3)cc2)C[S+]([O-])[C@@H]1c1cccnc1 (some centres not stated) | > | 100

These measurements were taken from ChEMBL document CHEMBL1127959.
